# studySystem: hTREM2 (Homo sapiens, UniProt Q9NZC2)
# Sequence (Q9NZC2 19-230): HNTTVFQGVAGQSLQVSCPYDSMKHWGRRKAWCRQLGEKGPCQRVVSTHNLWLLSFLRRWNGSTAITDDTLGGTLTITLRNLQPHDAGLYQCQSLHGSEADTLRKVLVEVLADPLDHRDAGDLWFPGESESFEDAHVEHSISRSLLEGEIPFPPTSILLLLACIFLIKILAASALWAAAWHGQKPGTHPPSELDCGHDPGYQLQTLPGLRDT
# Sequence (O43914 22-113 partner): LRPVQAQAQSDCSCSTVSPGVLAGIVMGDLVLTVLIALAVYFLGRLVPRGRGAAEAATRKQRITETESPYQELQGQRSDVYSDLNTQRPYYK
# experimentalProtocol: Phospho-Syk AlphaScreen/AlphaLISA assay in TREM2 and DAP12 overexpressing HEK293 cells (Example A1)
# Format: cell-based
# Parameters: expressed in transfected cells
# cond: HEK293 cells

- compound: "CCCn1c(C)nc2cc(N3CCO[C@@H](CF)C3)nc(-c3ccc(Cl)cc3F)c2c1=O"
  Emax: "++++ (Emax>300)"
- compound: "Cc1nc2cc(N3CCCC(c4cnco4)C3)nc(-c3ccc(Cl)cc3F)c2c(=O)n1C (stereo not shown)"
  Emax: "++++ (Emax>300)"
- compound: "Cc1nc2cc(N3CCO[C@H](c4cccc(OC(F)(F)F)c4)C3)nc(-c3ccc(Cl)cc3F)c2c(=O)n1C (single isomer, unassigned)"
  Emax: "++++ (Emax>300)"

###

# studySystem: hTREM2 (Homo sapiens, UniProt Q9NZC2)
# experimentalProtocol: Phospho-Syk AlphaScreen/AlphaLISA assay in TREM2 and DAP12 overexpressing HEK293 cells (Example A1)
# Format: cell-based
# Parameters: expressed in transfected cells
# cond: HEK293 cells
measureName: Emax

- compound: "Cc1nnc([C@H]2CN(c3cc4nc(C)n(C)c(=O)c4c(-c4ccc(Cl)cc4F)n3)CCO2)o1 [Example 271]"
  Emax: "+++ (Emax>200 and ≤300)"
- compound: "COc1cc([C@@H]2C[C@H](c3cc4nc(C)n(C)c(=O)c4c(-c4ccc(Cl)cc4F)n3)CCO2)ccn1 (single isomer, unassigned) [Example 173]"
  Emax: "+++ (Emax>200 and ≤300)"
- compound: "CCCn1c(C)nc2cc(N3CCO[C@H](c4cnn(C)c4)C3)nc(-c3ncc(Cl)cc3F)c2c1=O"
  Emax: "++++ (Emax>300)"
- compound: "Cc1nc2cc(N3CCO[C@H]([C@H]4CCOC4)C3)nc(-c3ccc(Cl)cc3F)c2c(=O)n1C (single isomer, unassigned)"
  Emax: "+++ (Emax>200 and ≤300)"
- compound: "Cc1nc2cc(N3C[C@@H](C)O[C@H](C4CC4)C3)nc(-c3ccc(Cl)cc3F)c2c(=O)n1C (single isomer, unassigned)"
  Emax: "+++ (Emax>200 and ≤300)"

Consider the following items and state reported Emax for each.
1. CCCn1c(C)nc2cc(N3CCO[C@H](c4ccnn4C)C3)nc(-c3ccc(Cl)cc3F)c2c1=O [Example 184]
2. Cc1nc2cc(N3CCO[C@H](c4cnn(C)c4)C3)nc(-c3ccc(Cl)cn3)c2c(=O)n1C

["++++ (Emax>300)", "+++ (Emax>200 and ≤300)"]

###

# studySystem: UniProtKB Q9NZC2
# experimentalProtocol: Phospho-Syk AlphaScreen/AlphaLISA assay in TREM2 and DAP12 overexpressing HEK293 cells (Example A1)
# Type: cell-based
# Set-up: expressed in transfected cells
# cond: HEK293 cells
measureName: Emax

Consider the following illustrative entries.
- compound: "Cc1nc2cc(N3CCO[C@@H](c4cnn(C)c4)C3)nc(-c3ncc(Cl)cc3F)c2c(=O)n1C"
  obsValue: "++++ (Emax>300)"
- compound: "Cc1nc2cc(N3CCC[C@@H](N(C)C)C3)nc(-c3ccc(Cl)cc3F)c2c(=O)n1C"
  obsValue: "+++ (Emax>200 and ≤300)"
- compound: "Cc1nc2cc(N3CCO[C@@H](c4cnn(C5CC5)c4)C3)nc(-c3ccc(Cl)cc3F)c2c(=O)n1C"
  obsValue: "++++ (Emax>300)"
- compound: "Cc1nc2cc([C@@H]3CCO[C@H](c4cnn(C5CC5)c4)C3)nc(-c3ccc(Cl)cc3F)c2c(=O)n1C (single isomer, unassigned)"
  obsValue: "+++ (Emax>200 and ≤300)"
- compound: "Cc1nc2cc(N3C[C@H](C)O[C@@H](C4CC4)C3)nc(-c3ccc(Cl)cc3F)c2c(=O)n1C (single isomer, unassigned)"
  obsValue: "+++ (Emax>200 and ≤300)"

Please look at the following compound next.
Reported Emax for Cc1nc2cc(N3CCOC(c4ccnn4C)C3)nc(-c3ccc(Cl)cc3F)c2c(=O)n1C (stereo not shown) : what is it?
++++ (Emax>300)
